Entry source: patent US9150530B2

# System: A549
# Experiment summary: Cell viability determination (MTT), A549
# Type: cell-based
# Applied conditions: Homo sapiens, A549, lung cancer, 48 hour incubation, read-out: Drug concentrations for 50% cell viability (IC50)
pIC50: −log10 of the molar value.
Measure name: pIC50

- CC(=O)Oc1c2ccccc2c(OC(=O)CNC(=O)OC(C)(C)C)c2oc(C(C)=O)cc12: 6.22

(I) CC(=O)c1cc2c(OC(=O)C(Cl)Cl)c3ccccc3c(OC(=O)C(Cl)Cl)c2o1
(II) CC(=O)Oc1c2ccccc2c(OC(C)=O)c2oc(C(C)=O)cc12 [reference compound]
(Q) Hi there! Just curious which has the higher pIC50 between I and II . Please respond with the label that marks your chosen entry.
(A) I
(I: 6.40, II: 5.77)
